Item-by-item account of growth at 10 µM
- System: OVCAR-4
- PROCEDURE DETAILS: Cytotoxicity against human OVCAR4 cells assessed as cell growth at 10 uM after 48 hrs by sulforhodamine B assay relative to control
- Type: functional
- CONDITION INFO: OVCAR-4, 48 h, read-out: Activity
OBSERVATION TYPE: growth at 10 µM (%)

1. COc1cc(C(=O)/C=C/c2cc(-c3ccc4c(c3)OCO4)n[nH]2)cc(OC)c1OC
-28
2. COc1cc(-c2cc(/C=C/C(=O)c3ccc(F)c(F)c3)[nH]n2)cc(OC)c1OC
17
3. COc1cc(C(=O)/C=C/c2cc(-c3cc(OC)c(OC)c(OC)c3)n[nH]2)cc(OC)c1OC
-100
4. COc1cc(-c2cc(/C=C/C(=O)c3ccc(N)cc3)[nH]n2)cc(OC)c1OC
-22
